property_measured: melting point (°C)
The figure you give is taken to be in °C; do not add the unit.

compound	meas_value
COCCOc1cc(NC(=O)OC(C)(C)C)c(NC(=O)CC(=O)c2cccc(I)c2)cc1C#Cc1ccccc1	172

Task: Tell me the measured melting point of CC1=CC(c2cccc(Cl)c2Cl)C(c2nnco2)=C(C)N1 (stereo not given) , please.
Result: 235

----------
Documented melting point across a set of compounds

Task: Returns the measured melting point for the input compound. Input: c1ccc(-c2ccc(CN3Cc4cccn4Cc4ccccc43)cc2)cc1
Result: 135 to 137 °C

Task: Query (compound): CC(C)(C)n1c(Cl)c(-c2ccc(Oc3ccccc3)cc2)c2c(N)ncnc21 ; field requested: melting point
Result: 137 to 138 °C

Task: Item CC(Oc1ccc([N+](=O)[O-])cc1F)c1c(Cl)ccc(F)c1Cl (stereo not given) has what recorded melting point?
Result: 110 °C

Task: Please report the recorded melting point for CNC(=O)c1cc(-c2ccc(-c3ccco3)cc2)n(-c2ccc(S(C)(=O)=O)c(F)c2)n1 .
Result: 196 to 198 °C

Task: Name the reported melting point value associated with the compound C=CC(=O)OCCOC(=O)Nc1ccccc1
Result: 66 to 68 °C

Task: Can you look up the measured melting point of CC(C)(C)OC(=O)n1cc(C(=O)C2CSC(c3cccnc3)N2C(=O)C=O)c2ccccc21 (stereo not given) for me?
Result: 125 to 130 °C

Task: Any idea what its melting point is? The compound is CNC(=O)NCCn1c(-c2ccc(CN3CCOCC3)cc2C)csc1=Nc1ccc(F)c(C)c1
Result: 130 to 135 °C

Task: // returns reported melting point for input CC(C)C(C(=O)O)c1ccc(OCCNC(=O)C2Cc3ccccc3N2S(=O)(=O)c2ccc(-c3cc(C(F)(F)F)ccc3Cl)cc2)cc1 (stereo not given)
Result: 84 to 88 °C

Task: melting point lookup needed for CC1(C)Cc2ccccc2C1NC=NC#N (stereo not given) , thanks.
Result: 164 to 167 °C

Task: // returns reported melting point for input O=C(O)c1ccccc1Nc1ccc([N+](=O)[O-])cc1[N+](=O)[O-]
Result: 266 to 270 °C

Task: Fill in the blank: the reported melting point of CSCCNC(=O)c1sc(-c2cccnc2)nc1Cl is ____.
Result: 97 to 98 °C

Task: Record request: melting point value, item CCCc1c(OCCCCC(=O)N(C)C)ccc(C(C)=O)c1O
Result: 95 to 97 °C

Task: Entry CC(c1oc2ccccc2c(=O)c1-c1cccc(F)c1)n1nc(-c2ccc3cc(O)ccc3c2)c2c(N)ncnc21 (stereo not given) : reported melting point = ?
Result: 281 to 285 °C

Task: Sample Clc1ccccc1C(c1ccccc1)(c1ccccc1)n1cccn1 — what was its melting point?
Result: 135 °C

Task: State the recorded melting point for this entry: CC(C)(C)c1onc(NC(=O)C2CC2)c1Cl
Result: 130 to 131 °C

Task: What measured melting point goes with COc1ccc(S(=O)(=O)N(C)C)c([N+](=O)[O-])c1 ?
Result: 90 to 92 °C

Task: I have this compound here, CC(C)(CO)c1cc(C#N)ccc1O , and I need its recorded melting point.
Result: 129 to 130 °C

Task: Give the measured melting point of O=[N+]([O-])c1cnc2ccccc2c1NCC12CCCN1CCC2 .
Result: 155 to 158 °C

Task: Which melting point is listed for Oc1ccc(Nn2cccc2)c2ccccc12 ?
Result: 83 to 84 °C

Task: # lookup: melting point of NCCc1ccc(Cl)c(Cl)c1CCO
Result: 79 to 80 °C
